IC50 values by entry
# Assayed system: Vascular endothelial growth factor receptor 2 (Homo sapiens)
# Protocol notes: Inhibition of recombinant KDR by HTRF assay
Write it as a number; the unit nM goes unstated.

These recorded examples may help you get a feel for the data.
Compound structure string	IC50 / nM
COc1cc2nccc(Oc3ccc4c(Nc5ccccc5)cccc4c3)c2cc1OC	2
COc1cc2nccc(Oc3ccc4c(NC(=O)c5ccccc5Cl)nn(C)c4c3)c2cc1OC	8
COc1cc2nccc(Oc3ccc4c(NC(=O)C5CC5)nn(C)c4c3)c2cc1OC	344
COc1cc2nccc(Oc3ccc4c(Nc5ccc(C(F)(F)F)cc5)nn(C)c4c3)c2cc1OC	70
COc1cc2nccc(Oc3ccc4c(NC(=O)Nc5ccc(C(F)(F)F)cc5Cl)nn(C)c4c3)c2cc1OC	8
COc1cc2nccc(Oc3ccc4c(NCc5ccccc5)nn(C)c4c3)c2cc1OC	60
COc1cccc(Nc2nn(C)c3cc(Oc4ccnc5cc(OC)c(OC)cc45)ccc23)c1	230
COc1cc2nccc(Oc3ccc4c(NC(=O)c5ccc(F)c(Cl)c5)nn(C)c4c3)c2cc1OC	3
COc1cc2nccc(Oc3ccc4c(N)nn(C)c4c3)c2cc1OC	1700
COc1cc2nccc(Oc3ccc4c(NC(=O)Nc5ccccc5)nn(C)c4c3)c2cc1OC	2

Look at this molecule and give its reported IC50. `COc1cc2nccc(Oc3ccc4c(NC(=O)c5cccc(C(F)(F)F)c5)nn(C)c4c3)c2cc1OC` 1

Same question, `COc1cc2nccc(Oc3ccc4c(NC(=O)c5ccc(C(F)(F)F)cc5)nn(C)c4c3)c2cc1OC` this time 3

Same question, `COc1ccc(NC(=O)Nc2nn(C)c3cc(Oc4ccnc5cc(OC)c(OC)cc45)ccc23)cc1` this time 1

Same question, `COc1ccc(C(=O)Nc2nn(C)c3cc(Oc4ccnc5cc(OC)c(OC)cc45)ccc23)cc1` this time 3

====

# Assayed system: Vascular endothelial growth factor receptor 2 (Homo sapiens, UniProt P35968)
# Sequence (P35968 whole entry): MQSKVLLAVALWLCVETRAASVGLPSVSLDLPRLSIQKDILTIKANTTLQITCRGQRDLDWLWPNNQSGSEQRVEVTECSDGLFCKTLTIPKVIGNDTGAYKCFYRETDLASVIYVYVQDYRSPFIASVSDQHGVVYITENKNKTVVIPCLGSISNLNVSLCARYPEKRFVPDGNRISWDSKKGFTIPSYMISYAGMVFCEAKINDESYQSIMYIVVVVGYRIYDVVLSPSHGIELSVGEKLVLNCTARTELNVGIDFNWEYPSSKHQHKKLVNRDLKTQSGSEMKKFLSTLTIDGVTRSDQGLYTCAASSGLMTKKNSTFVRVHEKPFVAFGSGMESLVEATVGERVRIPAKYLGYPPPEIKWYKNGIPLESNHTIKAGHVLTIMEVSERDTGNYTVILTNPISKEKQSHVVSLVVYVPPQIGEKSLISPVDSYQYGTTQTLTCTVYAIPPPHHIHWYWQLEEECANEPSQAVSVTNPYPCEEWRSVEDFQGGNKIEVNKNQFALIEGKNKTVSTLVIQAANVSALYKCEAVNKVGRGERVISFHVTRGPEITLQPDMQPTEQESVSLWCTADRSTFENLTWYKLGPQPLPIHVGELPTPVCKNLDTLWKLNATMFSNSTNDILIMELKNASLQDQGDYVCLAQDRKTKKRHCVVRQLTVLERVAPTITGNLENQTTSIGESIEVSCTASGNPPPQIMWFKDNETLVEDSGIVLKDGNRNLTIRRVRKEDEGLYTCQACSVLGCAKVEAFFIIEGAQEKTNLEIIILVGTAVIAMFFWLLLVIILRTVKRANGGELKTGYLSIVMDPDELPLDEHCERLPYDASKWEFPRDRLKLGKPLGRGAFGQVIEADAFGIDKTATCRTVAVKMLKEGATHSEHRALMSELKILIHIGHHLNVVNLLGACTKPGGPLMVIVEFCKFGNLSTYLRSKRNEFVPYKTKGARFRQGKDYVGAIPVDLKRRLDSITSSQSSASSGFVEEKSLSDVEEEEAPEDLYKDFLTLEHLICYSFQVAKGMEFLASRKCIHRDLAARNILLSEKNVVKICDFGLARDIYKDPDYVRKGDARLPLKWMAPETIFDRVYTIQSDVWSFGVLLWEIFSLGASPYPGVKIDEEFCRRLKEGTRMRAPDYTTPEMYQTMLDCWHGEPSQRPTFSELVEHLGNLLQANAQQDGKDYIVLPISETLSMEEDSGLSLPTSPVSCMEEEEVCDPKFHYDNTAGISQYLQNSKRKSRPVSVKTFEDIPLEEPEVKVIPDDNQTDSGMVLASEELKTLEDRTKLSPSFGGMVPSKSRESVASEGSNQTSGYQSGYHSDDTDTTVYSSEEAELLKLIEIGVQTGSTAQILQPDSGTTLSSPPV
# Protocol notes: Inhibition of recombinant KDR by HTRF assay
Reported metric: IC50 (nM)
Write it as a number; the unit nM goes unstated.

These recorded examples may help you get a feel for the data.
Compound structure string	Reported metric	Unit name	Observed result
CCCNc1nn(C)c2cc(Oc3ccnc4cc(OC)c(OC)cc34)ccc12	IC50	nM	1110
COc1ccccc1Nc1cccc2cc(Oc3ccnc4cc(OC)c(OC)cc34)ccc12	IC50	nM	1
COc1cc2nccc(Oc3ccc4c(NC(=O)c5cc(C(F)(F)F)cc(C(F)(F)F)c5)nn(C)c4c3)c2cc1OC	IC50	nM	2
CCCCNc1nn(C)c2cc(Oc3ccnc4cc(OC)c(OC)cc34)ccc12	IC50	nM	800
COc1cc2nccc(Oc3ccc4c(NC(=O)Nc5ccc(C)cc5)nn(C)c4c3)c2cc1OC	IC50	nM	2

Read the next record carefully.
Quick check: IC50 on Vascular endothelial growth factor receptor 2 (Homo sapiens, UniProt P35968), item `COc1cc2nccc(Oc3ccc4c(NC(=O)c5cccc(C)c5)nn(C)c4c3)c2cc1OC` ? 2

====

# Assayed system: Phosphatidylinositol 4,5-bisphosphate 3-kinase catalytic subunit alpha isoform (Homo sapiens)
# Sequence (P42336 whole entry, canonical isoform): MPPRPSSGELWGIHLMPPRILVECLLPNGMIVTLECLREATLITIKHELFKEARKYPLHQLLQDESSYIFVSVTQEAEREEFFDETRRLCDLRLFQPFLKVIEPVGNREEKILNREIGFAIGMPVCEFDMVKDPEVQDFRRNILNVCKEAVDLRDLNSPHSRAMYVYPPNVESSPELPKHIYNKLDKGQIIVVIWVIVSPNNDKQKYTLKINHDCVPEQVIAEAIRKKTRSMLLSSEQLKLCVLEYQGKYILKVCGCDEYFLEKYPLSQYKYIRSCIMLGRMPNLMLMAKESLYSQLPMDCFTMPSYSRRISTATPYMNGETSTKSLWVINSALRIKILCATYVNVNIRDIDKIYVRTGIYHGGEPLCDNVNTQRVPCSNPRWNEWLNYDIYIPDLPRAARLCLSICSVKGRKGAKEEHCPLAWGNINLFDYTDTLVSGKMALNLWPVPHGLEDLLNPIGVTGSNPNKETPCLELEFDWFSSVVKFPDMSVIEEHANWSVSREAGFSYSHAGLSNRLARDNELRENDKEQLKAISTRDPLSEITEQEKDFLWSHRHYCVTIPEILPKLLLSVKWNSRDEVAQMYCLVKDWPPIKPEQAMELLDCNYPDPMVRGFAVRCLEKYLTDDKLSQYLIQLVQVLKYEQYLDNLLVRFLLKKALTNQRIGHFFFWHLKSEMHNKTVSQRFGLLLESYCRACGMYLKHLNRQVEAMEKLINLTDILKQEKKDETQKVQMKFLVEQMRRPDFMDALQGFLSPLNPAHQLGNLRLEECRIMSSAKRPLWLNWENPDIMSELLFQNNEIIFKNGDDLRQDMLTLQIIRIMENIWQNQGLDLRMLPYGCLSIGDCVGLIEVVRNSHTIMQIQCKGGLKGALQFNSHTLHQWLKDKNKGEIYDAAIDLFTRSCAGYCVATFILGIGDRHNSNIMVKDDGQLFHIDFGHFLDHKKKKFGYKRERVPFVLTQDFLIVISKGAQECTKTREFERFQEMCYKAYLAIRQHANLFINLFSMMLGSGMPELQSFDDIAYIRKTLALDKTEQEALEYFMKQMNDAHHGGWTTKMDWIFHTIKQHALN
# Protocol notes: Inhibition of PI3K
Reported metric: pIC50
Schema: pIC50 number; meaning minus log10 of the concentration expressed in molar units.

Look at this compound and give its reported pIC50. `COc1cc2nccc(Oc3ccc4c(NC(=O)c5cccc(C(F)(F)F)c5)nn(C)c4c3)c2cc1OC` 5.49

====

# Assayed system: Mitogen-activated protein kinase 14 (Homo sapiens)
# Sequence (Q16539 whole entry): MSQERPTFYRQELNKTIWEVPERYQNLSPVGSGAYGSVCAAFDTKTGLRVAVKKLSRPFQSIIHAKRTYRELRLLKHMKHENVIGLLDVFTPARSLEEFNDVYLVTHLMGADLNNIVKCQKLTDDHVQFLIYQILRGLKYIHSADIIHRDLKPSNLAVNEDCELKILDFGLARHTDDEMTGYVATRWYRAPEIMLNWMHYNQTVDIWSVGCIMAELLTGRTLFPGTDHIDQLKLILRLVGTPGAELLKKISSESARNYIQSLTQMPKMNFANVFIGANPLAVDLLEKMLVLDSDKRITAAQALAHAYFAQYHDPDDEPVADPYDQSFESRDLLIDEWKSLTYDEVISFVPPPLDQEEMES
# Protocol notes: Inhibition of p38alpha
Reported metric: IC50 (nM)
Write it as a number; the unit nM goes unstated.

Look at this molecule and give its reported IC50. `COc1cc2nccc(Oc3ccc4c(NC(=O)c5cccc(C(F)(F)F)c5)nn(C)c4c3)c2cc1OC` 1650

====

# Assayed system: UniProtKB O14965
# Sequence (O14965 whole entry): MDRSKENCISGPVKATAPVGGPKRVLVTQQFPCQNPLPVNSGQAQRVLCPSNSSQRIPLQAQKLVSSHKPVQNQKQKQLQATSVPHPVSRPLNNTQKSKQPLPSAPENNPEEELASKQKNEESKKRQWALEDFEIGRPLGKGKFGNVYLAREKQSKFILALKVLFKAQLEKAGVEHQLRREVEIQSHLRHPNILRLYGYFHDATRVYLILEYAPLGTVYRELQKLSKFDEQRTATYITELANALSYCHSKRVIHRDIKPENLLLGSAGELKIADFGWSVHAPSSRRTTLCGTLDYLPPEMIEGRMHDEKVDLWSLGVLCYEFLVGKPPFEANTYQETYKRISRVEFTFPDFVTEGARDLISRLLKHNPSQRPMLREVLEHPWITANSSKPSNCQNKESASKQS
# Protocol notes: Inhibition of aurora 2 kinase
Reported metric: IC50 (µM)
Write it as a number; the unit µM goes unstated.

Look at this compound and give its reported IC50. `COc1cc2nccc(Oc3ccc4c(NC(=O)c5cccc(C(F)(F)F)c5)nn(C)c4c3)c2cc1OC` 0.764

====

# Protocol notes: AUC (0 to infinity) in Sprague-Dawley rat at 1 mg/kg, iv or 10 mg/kg, po
# Type: ADME, organism-based
# Run parameters: plasma
Reported metric: AUC(0-inf) (ng·h/mL)
Write it as a number; the unit ng·h/mL goes unstated.

Compound structure string	Unit name	AUC(0-inf)
COc1cc2nccc(Oc3ccc4c(NC(=O)c5cccc(C)c5)nn(C)c4c3)c2cc1OC	ng·h/mL	153
COc1cc2nccc(Oc3ccc4c(NC(=O)Nc5ccccc5)nn(C)c4c3)c2cc1OC	ng·h/mL	121

Read the next record carefully.
Look at this compound and give its reported AUC(0-inf). `COc1cc2nccc(Oc3ccc4c(NC(=O)c5cccc(C(F)(F)F)c5)nn(C)c4c3)c2cc1OC` 1530

====

clearance values by entry
# Protocol notes: Clearance in Sprague-Dawley rat at 1 mg/kg, iv or 10 mg/kg, po
# Format: ADME, organism-based
# Run parameters: in vivo

Compound structure string	clearance
COc1cc2nccc(Oc3ccc4c(NC(=O)c5cccc(C(F)(F)F)c5)nn(C)c4c3)c2cc1OC	11.7 mL/min/kg
COc1cc2nccc(Oc3ccc4c(NC(=O)c5cccc(C)c5)nn(C)c4c3)c2cc1OC	20 mL/min/kg
COc1cc2nccc(Oc3ccc4c(NC(=O)c5ccc(F)c(Cl)c5)nn(C)c4c3)c2cc1OC	21.7 mL/min/kg

Read the next record carefully.
Look at this compound and give its reported clearance. `COc1cc2nccc(Oc3ccc4c(NC(=O)Nc5ccccc5)nn(C)c4c3)c2cc1OC` 6.67 mL/min/kg

====

# Tested on: HUVEC
# Protocol notes: Inhibition of VEGF-stimulated HUVEC cell proliferation treated before 2 hrs of VEGF challenge assessed after 72 hrs
# Type: functional, cell-based
# Run parameters: Homo sapiens
Reported metric: pIC50
Schema: pIC50 number; meaning minus log10 of the concentration expressed in molar units.

Quick check: pIC50 on HUVEC, item `COc1cc2nccc(Oc3ccc4c(NC(=O)c5cccc(C(F)(F)F)c5)nn(C)c4c3)c2cc1OC` ? 8.05

Same question, `COc1cc2nccc(Oc3ccc4c(NC(=O)c5cccc(C)c5)nn(C)c4c3)c2cc1OC` this time 8.70

Same question, `COc1cc2nccc(Oc3ccc4c(NC(=O)Nc5ccc(C(F)(F)F)cc5Cl)nn(C)c4c3)c2cc1OC` this time 5.94

Same question, `COc1cc2nccc(Oc3ccc4c(NC(=O)Nc5ccccc5)nn(C)c4c3)c2cc1OC` this time 8.22

Same question, `COc1cc2nccc(Oc3ccc4c(NC(=O)c5ccc(Cl)cc5)nn(C)c4c3)c2cc1OC` this time 7.21

Same question, `COc1cc2nccc(Oc3ccc4c(NC(=O)c5cc(Cl)ccn5)nn(C)c4c3)c2cc1OC` this time 7.57

Same question, `COc1cc2nccc(Oc3ccc4c(NC(=O)c5ccc(F)c(Cl)c5)nn(C)c4c3)c2cc1OC` this time 8.05

Same question, `COc1cc2nccc(Oc3ccc4c(NC(=O)Nc5ccc(C)cc5)nn(C)c4c3)c2cc1OC` this time 8.52

Same question, `COc1cc2nccc(Oc3ccc4c(NC(=O)c5cc(C(F)(F)F)cc(C(F)(F)F)c5)nn(C)c4c3)c2cc1OC` this time 7.24

====

# Protocol notes: Volume of distribution at steady state in Sprague-Dawley rat at 1 mg/kg, iv or 10 mg/kg, po
# Assay type: ADME, organism-based
# Run parameters: in vivo, read-out: Vdss
Reported metric: Vd (L/kg)
Write it as a number; the unit L/kg goes unstated.

Look at this compound and give its reported Vd. `COc1cc2nccc(Oc3ccc4c(NC(=O)c5cccc(C)c5)nn(C)c4c3)c2cc1OC` 2.4

Same question, `COc1cc2nccc(Oc3ccc4c(NC(=O)Nc5ccccc5)nn(C)c4c3)c2cc1OC` this time 2

Same question, `COc1cc2nccc(Oc3ccc4c(NC(=O)c5ccc(F)c(Cl)c5)nn(C)c4c3)c2cc1OC` this time 2.1

Same question, `COc1cc2nccc(Oc3ccc4c(NC(=O)c5cccc(C(F)(F)F)c5)nn(C)c4c3)c2cc1OC` this time 1.4
